Just for reference, PubChem BioAssay (NCI) is where these values come from.

Test system: NCI/ADR-RES ovarian
ASSAY_METHOD_TEXT: NCI tumour cell line growth inhibition, 48 h; in the data active means GI50 below about 0.43 µM; inactive means the rest
Labels: yes = active, no = inactive

> print(dat)
                                    compound  class.name
 1  Cc1nn(-c2ccccc2)c2ncc3c(c12)C(=O)N(Cc1ccccc1)C3=O          no
 2  COc1ccc(/C(C)=C(\c2ccc(Cl)cc2)c2ccc(OCCN3CCCCC3)cc2)cc1F          no
 3  COc1ccc(/C=C2\CC(C)CC3C2=NN(C(C)=O)C3c2ccc(OC)c(OC)c2)cc1OC (stereo not drawn)          no
 4  CNCc1ccc(C)c(NC(=O)c2ccc(Nc3nc(-c4ccccc4)c4ccccc4n3)cc2)c1          no
 5  COc1ccc(-c2nccn2-c2cc(OC)c(OC)c(OC)c2)cc1          no
 6  Cc1cc(N2CCOCC2)nc(N(CCNc2ccnc3cc(Cl)ccc23)Cc2cccs2)n1          no
 7                    Cn1cnc2nc(Cl)nc(Cl)c21          no
 8  Cc1nc2cc(NC(=O)CN3CCN(CCN4C(=O)c5cccc6cccc(c56)C4=O)CC3)ccc2s1          no
 9  COc1ccc(/C=C2\CN(Cc3cn(CCCNc4ccnc5cc(Cl)ccc45)nn3)C/C(=C\c3ccc(OC)cc3)C2=O)cc1          no
10  CC1SC(c2cccc(Oc3ccccc3)c2)N(CCc2cccs2)C1=O (stereo not drawn)          no
11  O=C1/C(=C/c2ccc([N+](=O)[O-])s2)Oc2ccc(Cl)cc21          no
12  C[As](C)SCC(COC(=O)c1ccccc1)OC(=O)c1ccccc1 (stereo not drawn)         yes
13  Nc1cc(N)c2nc(-c3ccccc3)c(Sc3ccc(F)cc3)nc2c1          no
14  COc1cc(C2C3=C(COC3=O)N(CCO)c3cc4c(cc32)CCC4)cc(OC)c1OC (stereo not drawn)          no
15  COc1ccc(C2CC(c3cccc(Nc4ccnc5cc(Cl)ccc45)c3)=NN2c2ccc(Cl)cc2)cc1 (stereo not drawn)          no
16  COc1ccc(C2CC(c3ccc(OC)c(OC)c3)=NN2C(=O)c2cc(OC)c(OC)c(OC)c2)cc1 (stereo not drawn)          no
17  C=CC(=O)N1CC[C@@H](Oc2nc(Nc3ccc(N4CCC(N5CCN(C)CC5)CC4)cc3)c(C(N)=O)nc2CC)C1          no
18  CCCCCCCCCCCCOC1C(C(COC2OC(C(O)CO)C3OC(C)(C)OC23)OC(=O)Nc2ccc([N+](=O)[O-])cc2)OC2OC(C)(C)OC21 (stereo not drawn)          no
